Provenance of the data: patent US20260242478A1

The entries below are paired with their reported Anti-CD28 Fab signal in the presence of CD28.
target: Anti-CD28 Fab (SEQ ID NOs: 696, 697); test: phage binding ELISA on Fab coated plate; CD28 antigen as competitor
Sequence (VH, as listed by the source, chain 1 of 2): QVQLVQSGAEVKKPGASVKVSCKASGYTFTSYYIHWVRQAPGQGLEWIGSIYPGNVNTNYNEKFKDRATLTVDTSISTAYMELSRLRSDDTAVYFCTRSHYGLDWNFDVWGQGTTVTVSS
Sequence (VL, as listed by the source, chain 2 of 2): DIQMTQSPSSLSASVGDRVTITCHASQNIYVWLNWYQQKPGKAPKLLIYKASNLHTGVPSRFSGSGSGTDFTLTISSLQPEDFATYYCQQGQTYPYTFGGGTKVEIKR

Previously resolved entries follow.
>  <BINDER>
YCEGHSLEHIAKCL [Phage-1034]

>  <VALUE>
0.07

$$$$
>  <BINDER>
YCDGHLAIYIGKCL [Phage-1030]

>  <VALUE>
0.08

$$$$
>  <BINDER>
YCDGHVAEYRHKCL [Phage-1027]

>  <VALUE>
0.06

$$$$
>  <BINDER>
YCEGHRPEYMQKCV [Phage-1024]

>  <VALUE>
0.09

$$$$
>  <BINDER>
YCEGHVLEYRGKCD [Phage-1026]

>  <VALUE>
0.09

$$$$

### Prompt Report measured Anti-CD28 Fab signal in the presence of CD28; entry is YCDGHLEIYMSKCL [Phage-1031]
### Response 0.08

### Prompt Indicate its recorded Anti-CD28 Fab signal in the presence of CD28; the binder in question is YCAGHTQEYIEKCL [Phage-1029]
### Response 0.06

### Prompt In one line, give reported Anti-CD28 Fab signal in the presence of CD28 of the entry YCAGHTVENMAKCL [Phage-1025] .
### Response 0.07
